Biological target: c-kit (Homo sapiens)
Construct: human Mo7e cells which endogenously express c-kit; endogenous in cells; host or cells: human Mo7e cells (SCF-dependent promegakaryocytic leukemia line)
Sequence (P10721 26-976): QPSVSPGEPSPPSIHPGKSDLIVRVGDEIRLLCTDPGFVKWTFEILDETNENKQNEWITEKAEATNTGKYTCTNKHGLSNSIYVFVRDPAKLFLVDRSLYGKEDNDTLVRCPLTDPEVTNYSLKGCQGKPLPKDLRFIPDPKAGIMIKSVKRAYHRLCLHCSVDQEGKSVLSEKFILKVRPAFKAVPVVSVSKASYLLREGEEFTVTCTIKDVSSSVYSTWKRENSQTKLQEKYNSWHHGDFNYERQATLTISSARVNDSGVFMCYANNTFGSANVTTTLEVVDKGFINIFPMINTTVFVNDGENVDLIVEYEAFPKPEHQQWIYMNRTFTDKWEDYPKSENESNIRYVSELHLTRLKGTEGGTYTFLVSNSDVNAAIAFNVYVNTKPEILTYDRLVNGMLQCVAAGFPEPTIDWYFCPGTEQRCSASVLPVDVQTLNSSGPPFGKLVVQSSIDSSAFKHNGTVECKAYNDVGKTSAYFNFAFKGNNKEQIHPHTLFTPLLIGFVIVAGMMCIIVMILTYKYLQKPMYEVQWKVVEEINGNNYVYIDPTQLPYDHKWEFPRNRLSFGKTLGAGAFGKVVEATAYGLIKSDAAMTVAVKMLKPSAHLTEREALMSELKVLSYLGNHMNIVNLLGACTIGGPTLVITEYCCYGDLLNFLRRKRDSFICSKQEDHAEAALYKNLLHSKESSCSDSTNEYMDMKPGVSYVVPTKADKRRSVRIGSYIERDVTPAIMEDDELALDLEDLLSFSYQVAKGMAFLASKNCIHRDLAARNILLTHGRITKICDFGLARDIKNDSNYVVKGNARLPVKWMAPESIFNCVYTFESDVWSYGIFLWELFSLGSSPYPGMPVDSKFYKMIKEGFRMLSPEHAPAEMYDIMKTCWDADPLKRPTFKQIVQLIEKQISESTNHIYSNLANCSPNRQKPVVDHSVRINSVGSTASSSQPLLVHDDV
Experiment: Mo7e cell proliferation assay (SCF dependent proliferation)
Format: cell-based
Conditions: Table 1; human Mo7e cells stimulated with human recombinant SCF, 48 h, CellTiter Glo; 1% FBS (footnote)
Property: pIC50; scope: individual molecules
By convention, pIC50 is the negative base-10 log of a molar concentration.

Some solved cases for reference:
* Cc1ccc(-c2noc(COCC(F)(F)F)n2)cc1NC(=O)c1cnc2ccccn12 [F39] | 8.10
* Cc1ccc(-c2noc(CCC(C)(C)O)n2)cc1NC(=O)c1cnc2cc(-c3ccn(C)n3)ccn12 [F42] | 8.05

For the molecule Cc1ccc(-c2noc(CCC(C)(O)C(F)(F)F)n2)cc1NC(=O)c1cnc2ccccn12 (stereo not drawn) [F66] , give its measured pIC50 value. 7.57

For the molecule Cc1nc(-c2ccc(C)c(NC(=O)c3cnc4ccc(-c5ccncc5C)cn34)c2)no1 [F83] , give its measured pIC50 value. 7.32

For the molecule CCOCCc1nc(-c2ccc(C)c(NC(=O)c3cnc4ccccn34)c2)no1 [F10] , give its measured pIC50 value. 7.38

For the molecule Cc1nc(-c2ccc(C)c(NC(=O)c3cnc4ccc(-c5c(C)nn(C)c5C)cn34)c2)no1 [F100] , give its measured pIC50 value. 7.72

For the molecule Cc1nc(-c2ccc(C)c(NC(=O)c3cnc4ccc(-c5ccnc(N)c5)cn34)c2)no1 [F103] , give its measured pIC50 value. 7.21

For the molecule COCCOCc1nc(-c2ccc(C)c(NC(=O)c3cnc4ccccn34)c2)no1 [F26] , give its measured pIC50 value. 7.23

For the molecule Cc1ccc(Nc2noc(C(C)(C)CO)n2)cc1NC(=O)c1cnc2ccccn12 [F46] , give its measured pIC50 value. 7.89

For the molecule Cc1ccc(-c2noc([C@@H](C)NS(C)(=O)=O)n2)cc1NC(=O)c1cnc2ccccn12 [F18] , give its measured pIC50 value. 7.01

For the molecule Cc1ccc(-c2noc(CCC(C)(O)C(F)(F)F)n2)cc1NC(=O)c1cnc2cc(F)ccn12 (stereo not drawn) [F70] , give its measured pIC50 value. 7.36

For the molecule CC(=O)CCc1nc(-c2ccc(C)c(NC(=O)c3cnc4ccccn34)c2)no1 [F5] , give its measured pIC50 value. 7.49

For the molecule Cc1ccc(-c2noc(CC[C@@](C)(O)C(F)(F)F)n2)cc1NC(=O)c1cnc2cc(F)ccn12 [F89] , give its measured pIC50 value. 7.39

For the molecule Cc1ccc(-c2noc(CNC(=O)OC(C)C)n2)cc1NC(=O)c1cnc2ccccn12 [F30] , give its measured pIC50 value. 7.21

For the molecule CCOC(=O)NCc1nc(-c2ccc(C)c(NC(=O)c3cnc4ccccn34)c2)no1 [F29] , give its measured pIC50 value. 7.10

For the molecule Cc1ccc(-c2noc(CCOCC(F)(F)F)n2)cc1NC(=O)c1cnc2ccccn12 [F28] , give its measured pIC50 value. 8.15

For the molecule CNC(=O)c1sc(-c2ccc3ncc(C(=O)Nc4cc(-c5noc(C)n5)ccc4C)n3c2)nc1C [F258] , give its measured pIC50 value. 7.19

For the molecule COCCCc1nc(-c2ccc(C)c(NC(=O)c3cnc4ccccn34)c2)no1 [F3] , give its measured pIC50 value. 7.36
